test system: SN12C renal; assay: NCI-60 one-dose screen, 48 h (100 = growth as untreated, 0 = no growth, -100 = all killed); conditions: 10 µM unless noted
About 83,000 compounds went through this panel and 20% of them were active in at least one assay; those are over-represented in the sample as a whole.
Class Condition met: growth at least 90%. Class Condition not met: growth below 90%.

Enquiry: In plain terms: is recorded growth at least 90% for CC(O)(c1ccccc1)C(c1ccccc1)C1CCCCN1 (stereo not given) ?
Return: Condition met

Enquiry: Decide: is the reported value of growth for COc1ccc2c(c1)N(CCO)C1=C(C(=O)OC1)C2c1cccc(F)c1 (stereo not given) equal to or greater than 90%?
Return: Condition not met

Enquiry: Please indicate if the recorded growth for CCOCCNC1=C(Cl)C(=O)c2ccccc2C1=O meets or exceeds 90%.
Return: Condition met

Enquiry: Does growth meet or surpass 90% for COC(=O)/C=C1/SC(=Nc2cccc(OC)c2)N(CCc2c[nH]c3ccc(O)cc23)C1=O ?
Return: Condition not met

Enquiry: Does the reported growth for COC(=O)[C@]1(C)CCC[C@]2(C)[C@H]3C[C@H]4C(C(C)C)=C[C@]3(CC[C@H]21)[C@@H]1C(=O)CC[C@H](OCCC#N)[C@@H]14 fall at or above the 90% mark?
Return: Condition met
